target_entity: CGRP receptor (Homo sapiens (Human), UniProt O60894+Q16602)
Sequence (Q16602 23-461): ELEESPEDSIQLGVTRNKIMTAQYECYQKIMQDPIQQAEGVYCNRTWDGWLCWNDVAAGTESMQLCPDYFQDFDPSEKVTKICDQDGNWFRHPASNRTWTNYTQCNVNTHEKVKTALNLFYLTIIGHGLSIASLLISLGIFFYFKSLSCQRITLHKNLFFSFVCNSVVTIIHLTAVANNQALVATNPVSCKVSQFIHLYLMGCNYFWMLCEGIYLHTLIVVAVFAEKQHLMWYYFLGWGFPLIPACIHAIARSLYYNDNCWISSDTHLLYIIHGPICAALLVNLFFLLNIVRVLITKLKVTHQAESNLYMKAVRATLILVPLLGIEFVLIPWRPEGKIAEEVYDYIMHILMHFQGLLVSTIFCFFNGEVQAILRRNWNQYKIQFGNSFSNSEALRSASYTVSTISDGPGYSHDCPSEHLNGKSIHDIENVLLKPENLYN
Sequence (O60894 27-148): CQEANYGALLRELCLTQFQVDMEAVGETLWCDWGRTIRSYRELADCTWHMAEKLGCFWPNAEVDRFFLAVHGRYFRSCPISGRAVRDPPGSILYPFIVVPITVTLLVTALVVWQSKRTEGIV
assay: cAMP functional assay (HTRF) in SK-N-MC cells
Type: cell-based
condition_details: read-out: pkb average (converted)
Structures can show the parent of a compound that is named as a salt.
test_readout: Kb (nM)

Examples with their reported Kb follow.
compound=O=C(N[C@@H](CC1CCNCC1)C(=O)N1CCN(c2ccncc2)CC1)[C@@H](Cc1cc(Br)c(O)c(Br)c1)NC(=O)N1CCC(n2c(=O)[nH]c3ncccc32)CC1 test_readout=Kb reported=0.0158
compound=Cc1cc(C[C@@H](NC(=O)N2CCC3(CC2)OC(=O)Nc2ncccc23)C(=O)N[C@@H](CC2CCNCC2)C(=O)N2CCN(c3ccncc3)CC2)cc2cn[nH]c12 test_readout=Kb reported=0.0501
compound=O=C1Nc2ncccc2C2(CCN(C(=O)N[C@H](Cc3cc(Br)c(O)c(Br)c3)C(=O)N[C@@H](CC3CCNCC3)C(=O)N3CCN(c4ccncc4)CC3)CC2)O1 test_readout=Kb reported=0.0158
compound=CCN1CCC(C[C@H](NC(=O)[C@@H](Cc2cc(C)c3[nH]ncc3c2)NC(=O)N2CCC(c3cc4ccccc4[nH]c3=O)CC2)C(=O)N2CCN(c3ccncc3)CC2)CC1 test_readout=Kb reported=0.0251
compound=Cc1cc(C[C@@H](NC(=O)N2CCC(N3Cc4ccccc4NC3=O)CC2)C(=O)N[C@@H](CC2CCNCC2)C(=O)N2CCN(c3ccncc3)CC2)cc2cn[nH]c12 test_readout=Kb reported=0.0794
compound=O=C(N[C@@H](CC1CCNCC1)C(=O)N1CCN(c2ccncc2)CC1)[C@@H](Cc1cc(Br)c(O)c(Br)c1)NC(=O)N1CCC(c2cc3ccccc3[nH]c2=O)CC1 test_readout=Kb reported=0.251

I: Cc1cc(C[C@@H](NC(=O)N2CCC(n3c(=O)[nH]c4ncccc43)CC2)C(=O)N[C@@H](CC2CCN(CCN(C)C)CC2)C(=O)N2CCN(c3ccncc3)CC2)cc2cn[nH]c12
II: Cc1cc(C[C@@H](NC(=O)N2CCC(n3c(=O)[nH]c4ncccc43)CC2)C(=O)N[C@@H](CC2CCN(C(=O)CC(=O)O)CC2)C(=O)N2CCN(c3ccncc3)CC2)cc2cn[nH]c12 [Example 13, ammonium Salt]
Request: Just tell me: smaller Kb value, I or II ? Lab note: record the label of whichever item you select.
Response: I
